# Run description: NOD1 signaling inhibitors, primary screen, cell-based, luminescence, uHTS (AID 1578);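 note: HEK-293T reporter cells stimulated with the NOD1 agonist gamma-tri-DAP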
# Recorded conditions: NOD1-driven NF-kB luciferase reporter cells, at 4 µM, active compounds read high
The whole screen tested about 290,000 compounds, of which about 3,000 (1%) were called active. Many of the other results were omitted from the sample, so actives are more common in it than they were.
Binary classification by inhibition, with -20% as an inclusive lower bound for t; all other cases are f.

Compound: CCOc1ccc2c(c1)OC(c1ccc(C)cc1)(C(F)(F)F)NC2=O (stereo not given)
Cat: t

Compound: COc1cccc(CNc2ncn[nH]2)c1OCc1ccc(F)cc1
Cat: f

Compound: CC(=O)Nc1ccc(NC(=O)[C@@H](NC(=O)N2C[C@H]3C[C@@H](C2)c2cccc(=O)n2C3)C(C)C)cc1
Cat: t

Compound: CCOc1ccc2c(c1)OC(c1ccccc1)(C(F)(F)F)NC2=O (stereo not given)
Cat: f

Compound: COc1cccc(N2CCN(c3nc(C)c(C)c(=O)[nH]3)CC2)c1
Cat: f

Compound: O=[N+]([O-])c1cccc(-c2nnc(C34CC5CC(CC(C5)C3)C4)o2)c1
Cat: t

Compound: Cc1ccc(C(=O)CSc2nnc3ccccn23)c(C)c1
Cat: t

Compound: Cc1ccc(N=Nc2c(N)[nH]n3c(=O)cc(-c4ccccc4)nc23)cc1
Cat: t

Compound: Nc1[nH]n2c(=O)cc(-c3ccccc3)nc2c1N=Nc1ccc(S(N)(=O)=O)cc1
Cat: f
